Ref: paper PMC3873546

- System: hT1R1(m.371–380) (with mT1R3)
- Construct: gene TAS1R1
- protocol.conditions: pH 7.4, rG15i2, no IMP; orthosteric site agonist
property: pEC50
// scale note: pEC50 = -log10(conc_M); give the bare number

In plain terms, N[C@@H](CCC(=O)O)C(=O)O [L-Glu] has a documented pEC50 of 3.96

###

- Test system: baboon T1R1 (with mT1R3)
- Construct: gene TAS1R1
- protocol.conditions: pH 7.4, rG15i2, no IMP; orthosteric site agonist
property: pEC50
// scale note: pEC50 = -log10(conc_M); give the bare number

In plain terms, `N[C@@H](CCC(=O)O)C(=O)O` has a documented pEC50 of 2.74
